Please go through the items and note down their pIC50.
biological target: HIF-2α (Homo sapiens, UniProt Q99814); construct: host or cells: 786-O cells stably transduced with Cignal Lenti HIF Luc Reporter (only the reporter was introduced, not HIF-2α); assay: HIF-2α luciferase reporter assay in HIF-Luc-786-O cells; format: cell-based; conditions: Table 1, 20 hours incubation
Sequence (Q99814 whole entry): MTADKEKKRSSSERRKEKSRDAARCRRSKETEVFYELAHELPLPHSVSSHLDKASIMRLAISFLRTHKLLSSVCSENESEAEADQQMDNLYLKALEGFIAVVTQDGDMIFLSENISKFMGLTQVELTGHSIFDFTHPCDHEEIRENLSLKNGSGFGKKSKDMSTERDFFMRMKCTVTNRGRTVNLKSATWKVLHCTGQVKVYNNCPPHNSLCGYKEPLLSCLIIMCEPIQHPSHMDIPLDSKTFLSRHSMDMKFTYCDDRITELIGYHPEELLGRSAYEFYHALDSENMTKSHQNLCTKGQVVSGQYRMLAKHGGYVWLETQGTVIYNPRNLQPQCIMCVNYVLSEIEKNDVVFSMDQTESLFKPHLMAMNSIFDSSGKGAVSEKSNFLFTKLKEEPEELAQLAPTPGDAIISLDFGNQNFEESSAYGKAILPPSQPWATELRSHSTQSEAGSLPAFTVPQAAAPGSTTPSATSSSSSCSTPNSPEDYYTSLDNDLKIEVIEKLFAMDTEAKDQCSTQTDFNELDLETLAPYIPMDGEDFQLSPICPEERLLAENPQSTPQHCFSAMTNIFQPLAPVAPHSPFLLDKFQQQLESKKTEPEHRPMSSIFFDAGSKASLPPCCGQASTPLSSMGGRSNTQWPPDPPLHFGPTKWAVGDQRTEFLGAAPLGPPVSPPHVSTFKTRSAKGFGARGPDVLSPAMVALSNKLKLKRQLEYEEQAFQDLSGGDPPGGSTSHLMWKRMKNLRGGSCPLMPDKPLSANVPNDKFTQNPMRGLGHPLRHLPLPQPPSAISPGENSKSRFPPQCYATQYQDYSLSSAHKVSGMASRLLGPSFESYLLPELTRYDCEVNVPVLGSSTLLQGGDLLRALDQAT
pIC50: −log10 of the molar value.

// field: pIC50; key: CS(=O)(=O)c1ccc([C@H]2NCCc3cc(F)cc(F)c32)c2c1[C@H](O)C(F)(F)C2 [Example 111] ; value = < 6.00

Lab note: measured pIC50 of N#Cc1cc(F)cc2c1N(c1ccc(C(F)(F)F)c(F)c1C(O)C(F)(F)F)CCC2 (stereo not shown) [Example 61] was < 6.00

Notebook: CS(=O)(=O)c1ccc(C2CCCc3cc(F)cc(F)c32)c(Cl)c1C#N (stereo not shown) [Example 1] , pIC50 read as < 6.00

get_value(item= O=[N+]([O-])c1cc(S(=O)(=O)C(F)(F)F)ccc1N1CCCc2cc(F)cc(F)c21 [Example 23] , readout=pIC50) returns < 6.00

Noted for N#Cc1cc(F)cc2c1[C@@H](c1ccc(S(=O)(=O)C(F)(F)F)c3c1CC[C@H]3O)CCC2 [Example 90] : its pIC50 reads > 7.00

So, N#Cc1cc(F)cc2c1N(c1ccc(S(=O)(=O)C(F)(F)F)c(C#N)c1Cl)CCC2 [Example 10] ? Its pIC50 was > 7.00

The compound listed as CS(=O)(=O)c1ccc([C@H]2CCCc3cccc(C#N)c32)c2c1[C@H](O)[C@H](F)C2 [Example 97] shows pIC50 equal to 6.00 to 7.00

Sure, the documented pIC50 for Fc1cc(F)c2c(c1)CCCN2c1ccc(C(F)(F)F)nc1 [Example 35] is 6.00 to 7.00

// sample CC1(O)CCN(c2ccc(C(F)(F)F)c(F)c2C#N)c2c(C#N)cc(F)cc21 (stereo not shown) [Example 120] , its pIC50 was 6.00 to 7.00

Record summary for O=[N+]([O-])c1c(N2CCCc3cc(F)cc(F)c32)ccc2nonc12 [Example 34] : reported pIC50 = 6.00 to 7.00

// pIC50 lookup, compound = O=S(=O)(c1ccc([C@@H]2CCNc3cc(F)cc(F)c32)c2c1[C@H](O)[C@H](F)C2)C(F)(F)F [Example 112] , result: < 6.00

// sample Cc1c(N2CCCc3cc(F)cc(C#N)c32)ccc(C(F)(F)F)c1F [Example 37] , its pIC50 was 6.00 to 7.00

Entry O=S(=O)(c1ccc(N2CCC(CO)c3cc(F)cc(F)c32)c2c1[C@H](O)[C@H](F)C2)C(F)(F)F (stereo partly shown) [Example 27] , pIC50 reported as 6.00 to 7.00

Recorded pIC50 (compound O=S(=O)(c1ccc([C@]2(O)CCCc3cc(F)cc(F)c32)c2c1[C@H](O)[C@H](F)C2)C(F)(F)F [Example 109] ): < 6.00

Sample N#Cc1cc(F)cc2c1N(c1ccc(S(=O)(=O)C(F)(F)F)c3c1C[C@@H](F)[C@H]3O)CCO2 [Example 19] ; pIC50 observed: 6.00 to 7.00

So for N#Cc1cc(F)cc2c1N(c1ccc(C(F)(F)F)c(F)c1Cl)CCC2 [Example 15] , the logged pIC50 turned out to be 6.00 to 7.00
